Test system: Escherichia coli TOP10
protocol.notes: shrunken log2 fold change of peptide-encoding DNA abundance (4.5 h post-induction vs induction); higher = less antimicrobial activity (less host growth inhibition)
test.context: time post-induction: 4.5 h; library: site-saturation at positions 5, 18, 19, 20
A collection of sequences and their measured shrunken log2 fold change
Answer using only a numeral; do not append any unit.

Worked examples follow.
RRIRHRPPRLPRPRPRPSSCPRP : -0.0272
RRIRGRPPRLPRPRPRPPFQPRP : 0.358
RRIRKRPPRLPRPRPRPNETPRP : 0.118
RRIRMRPPRLPRPRPRPRPSPRP : 1.12
RRIRPRPPRLPRPRPRPPIVPRP : 0.161

What value of shrunken log2 fold change on Escherichia coli TOP10 does RRIRGRPPRLPRPRPRPHGNPRP have? 0.365

Then what about the sequence RRIRSRPPRLPRPRPRPVHSPRP ? 0.139

And then RRIRLRPPRLPRPRPRPQNLPRP , what is it? -0.149

Please give the result for RRIRIRPPRLPRPRPRPVVRPRP too. 0.11

* * *

Tested on: Escherichia coli TOP10
protocol.notes: shrunken log2 fold change of peptide-encoding DNA abundance (4.5 h post-induction vs induction); higher = less antimicrobial activity (less host growth inhibition)
test.context: time post-induction: 4.5 h; library: site-saturation at positions 5, 18, 19, 20
The following sequences are shown together with reported shrunken log2 fold change values.
Provide a numeric answer; units are not to be included.

Reference set (4 entries):
RRIRMRPPRLPRPRPRPYESPRP : 0.107
RRIRYRPPRLPRPRPRPSLKPRP : -0.316
RRIRIRPPRLPRPRPRPSNMPRP : -0.353
RRIRPRPPRLPRPRPRPPDIPRP : -0.602

Entry under review: RRIRFRPPRLPRPRPRPQNQPRP . Reported shrunken log2 fold change? -0.485

Next entry: RRIRPRPPRLPRPRPRPSYWPRP -0.277

Try the sequence RRIRQRPPRLPRPRPRPLFTPRP -0.426

What do you have for RRIRCRPPRLPRPRPRPKLNPRP ? -0.265

* * *

Test system: Escherichia coli TOP10;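 further: peptides expressed intracellularly from a pBAD plasmid library in pooled LB shake-flask culture, induced with 0.3% L-arabinose, DNA abundance read by NGS, three biological replicates, DESeq2 with apeglm shrinkage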
protocol.notes: shrunken log2 fold change of peptide-encoding DNA abundance (4.5 h post-induction vs induction); higher = less antimicrobial activity (less host growth inhibition)
test.context: time post-induction: 4.5 h; library: site-saturation at positions 5, 18, 19, 20
attribute.measured: shrunken log2 fold change
Give your answer as a number; write no unit.

Example results:
RRIRNRPPRLPRPRPRPGTHPRP : -0.16
RRIRCRPPRLPRPRPRPGLMPRP : -0.102
RRIRVRPPRLPRPRPRPEFTPRP : -0.0269
RRIRRRPPRLPRPRPRPWGAPRP : 0.483
RRIRRRPPRLPRPRPRPYVSPRP : -0.00885

Could you tell me which shrunken log2 fold change is on file for RRIRYRPPRLPRPRPRPGNEPRP ? -0.229

Try the sequence RRIRHRPPRLPRPRPRPHATPRP 0.0228

Can you check RRIRQRPPRLPRPRPRPGGGPRP next? 0.748

Follow-up entry: RRIRMRPPRLPRPRPRPKAYPRP 0.0225

Same lookup for RRIRQRPPRLPRPRPRPISNPRP , please. -0.223

// same read-out, input: RRIRRRPPRLPRPRPRPSVYPRP -0.0412

Try this sequence too: RRIRIRPPRLPRPRPRPVDVPRP -0.675

Please do the same for RRIRWRPPRLPRPRPRPTSPPRP as well. 0.217

Now the sequence RRIRKRPPRLPRPRPRPKPAPRP 1.11

// same read-out, input: RRIRTRPPRLPRPRPRPSDSPRP -0.214

Now consider RRIRFRPPRLPRPRPRPFMYPRP . -0.742

Also RRIRYRPPRLPRPRPRPSSMPRP , if possible. -0.999

Reference for the values: the supplement of paper PMC9112550
